Sourced from patent US9290485B2

Target Desc: human plasma kallikrein (Homo sapiens (Human), UniProt P03952)
Sequence (P03952 whole entry, looked up): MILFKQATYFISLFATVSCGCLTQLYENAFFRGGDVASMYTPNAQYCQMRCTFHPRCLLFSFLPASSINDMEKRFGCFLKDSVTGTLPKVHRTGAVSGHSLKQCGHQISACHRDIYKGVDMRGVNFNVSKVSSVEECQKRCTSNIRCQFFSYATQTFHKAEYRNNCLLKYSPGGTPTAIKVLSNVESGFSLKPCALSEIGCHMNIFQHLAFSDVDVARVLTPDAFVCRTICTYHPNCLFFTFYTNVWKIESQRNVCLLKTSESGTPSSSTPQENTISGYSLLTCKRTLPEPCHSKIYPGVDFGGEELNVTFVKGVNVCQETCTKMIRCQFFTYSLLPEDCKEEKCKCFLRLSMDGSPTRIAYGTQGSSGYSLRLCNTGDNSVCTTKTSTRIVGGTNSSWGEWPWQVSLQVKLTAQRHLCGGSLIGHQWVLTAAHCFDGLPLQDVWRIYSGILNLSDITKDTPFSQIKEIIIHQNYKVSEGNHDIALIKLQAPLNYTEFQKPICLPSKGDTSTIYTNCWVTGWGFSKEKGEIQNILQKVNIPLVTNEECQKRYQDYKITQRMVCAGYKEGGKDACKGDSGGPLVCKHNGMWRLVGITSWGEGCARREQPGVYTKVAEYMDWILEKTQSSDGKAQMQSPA
Sequence (P03952 whole entry partner, looked up): as the sequence (P03952 whole entry, looked up) above
Condition Details: human plasma kallikrein 25 pM, substrate 0.5 uM, 1 hour pre-incubation at room temperature, read at t=60 min
pIC50: −log10 of the molar value.
Think of 8 as a floor: if pIC50 stands on it or above, it is 1; beneath it, 0.

Example results:
Query: Has Cc1cc(N)nc(C)c1CNC(=O)c1cnn(Cc2ccc(Cn3ccc(=O)[nH]3)cc2)c1 [Example 139] a recorded pIC50 greater than or equal to 8?
Response: 1

Query: Hello, I need to know if Cc1cc(N)nc(C)c1CNC(=O)c1cnn(Cc2ccc(CN3CCCC3=O)cc2)c1 [Example 143] has measured pIC50 not below 8. Thanks!
Response: 1

Query: Reported pIC50 at or above 8? Cc1cc(N)nc(C)c1CNC(=O)c1cnn(Cc2csc(C(C)(C)C)n2)c1 [Example 28]
Response: 0

Query: Check the entry Cc1cc(N)nc(C)c1CNC(=O)c1cnn(Cc2cccc(-c3ccccc3)c2)c1 [Example 115] : does pIC50 equal or exceed 8?
Response: 1

Query: Record Cc1cc(N)nc(C)c1CNC(=O)c1nc(Cc2ccc(-c3ccccc3)cc2)n[nH]1 [Example 124] ; criterion: pIC50 no lower than 8. Met?
Response: 0

***
Query: Is the recorded value of pIC50 equal to or greater than 8 for this molecule? Cc1nc(N)ccc1CNC(=O)c1cnn(Cc2ccccc2)c1 [Example 85]
Response: 0

Query: Determine whether measured pIC50 meets or exceeds 8 for Cc1cc(N)nc(C)c1CNC(=O)c1cn(Cc2ccc(Oc3ccccc3)cc2)nn1 [Example 38]
Response: 0

Query: Decide: pIC50 of Cc1cc(N)nc(C)c1CNC(=O)c1nc(Cc2ccc(Oc3ccccc3)cc2)n[nH]1 [Example 125] >= 8?
Response: 0

Query: Decide: is the reported value of pIC50 for Cc1cc(N)nc(C)c1CNC(=O)c1cnn(Cc2nc3ccccc3s2)c1 [Example 105] equal to or greater than 8?
Response: 0

Query: Could you verify whether the entry Cc1cn2cc(Cn3cc(C(=O)NCc4c(C)cc(N)nc4C)cn3)ccc2n1 [Example 169] shows pIC50 of no less than 8?
Response: 1

Query: Reported pIC50 reaches at least 8 for Cc1cc(N)nc(C)c1CNC(=O)c1ncn(Cc2cccc3ccccc23)n1 [Example 62] ?
Response: 0

Query: Answer whether pIC50 of Cc1cc(N)nc(C)c1CNC(=O)c1cnn(Cc2ccc(CN3CCCC3)cc2)c1 [Example 118] is greater than or equal to 8.
Response: 0

Query: Quick check, pIC50 >= 8? COc1ccc(Cc2nc(C(=O)NCc3c(C)cc(N)nc3C)co2)cc1 [Example 8]
Response: 0

Query: Check if pIC50 >= 8 (inclusive). Item: Cc1cc(N)nc(C)c1CNC(=O)c1cnn(Cc2ccc3c(c2)OCO3)c1 [Example 103]
Response: 0

Query: Could you verify whether the entry Cc1cc(N)nc(C)c1CNC(=O)c1cnn(Cc2ccc(Cn3ccnn3)cc2)c1 [Example 140] shows pIC50 of no less than 8?
Response: 1

Query: Exam item: decide whether the reported pIC50 for Cc1cc(N)nc(C)c1CNC(=O)c1cn(Cc2ccccc2)nc1C [Example 49] is at least 8.
Response: 0

Query: Item Cc1cc(N)nc(C)c1CNC(=O)c1cnn(Cc2cccc(C(=O)Nc3ccccc3)c2)c1 [Example 117] with pIC50 of 8 or above?
Response: 0
